test: folding enthalpy; higher = less favourable; fluorescence melt of hairpins on a sequencing array, two-state fit; details: sodium 0.088 M
Hi, to clarify the labels: Criterion met covers folding enthalpy from -30 kcal/mol upward, Criterion not met covers anything below -30 kcal/mol.

{"entry.sequence": "GTTACCGAAAGGTGCAAC ((((((....)))..)))", "category": "Criterion met"}
{"entry.sequence": "GGAAGCGAAAGCTGTTCC ((((((....)))..)))", "category": "Criterion met"}
{"entry.sequence": "GGGACGTCGAAAGACCCC (((..(((....))))))", "category": "Criterion met"}
{"entry.sequence": "GATCAAGACTTGATC ((((((...))))))", "category": "Criterion not met"}
{"entry.sequence": "GTTTATGGAAACATGAAC (((.(((....))).)))", "category": "Criterion not met"}
{"entry.sequence": "GACCACGGAAACGTGATC ((.((((....)))).))", "category": "Criterion met"}
{"entry.sequence": "GATCTGAATCCAGATC ((((((....))))))", "category": "Criterion not met"}
{"entry.sequence": "GCGACTGATCGC ((((....))))", "category": "Criterion met"}
{"entry.sequence": "GATCCTAACAAGGATC ((((((....))))))", "category": "Criterion not met"}
{"entry.sequence": "GTGTATCGAAAGATGCAC (((.(((....))).)))", "category": "Criterion not met"}
{"entry.sequence": "GTCCTATCGAAAGATGAC (((..(((....))))))", "category": "Criterion met"}
{"entry.sequence": "GATCCTTAGGAGGATC ((((((....))))))", "category": "Criterion not met"}
